Data provenance is ChEMBL document CHEMBL1122779.

# SUBJECT_OF_TEST: Cyclooxygenase (Bos taurus, UniProt O62664+O62698)
# Sequence (O62664 whole entry): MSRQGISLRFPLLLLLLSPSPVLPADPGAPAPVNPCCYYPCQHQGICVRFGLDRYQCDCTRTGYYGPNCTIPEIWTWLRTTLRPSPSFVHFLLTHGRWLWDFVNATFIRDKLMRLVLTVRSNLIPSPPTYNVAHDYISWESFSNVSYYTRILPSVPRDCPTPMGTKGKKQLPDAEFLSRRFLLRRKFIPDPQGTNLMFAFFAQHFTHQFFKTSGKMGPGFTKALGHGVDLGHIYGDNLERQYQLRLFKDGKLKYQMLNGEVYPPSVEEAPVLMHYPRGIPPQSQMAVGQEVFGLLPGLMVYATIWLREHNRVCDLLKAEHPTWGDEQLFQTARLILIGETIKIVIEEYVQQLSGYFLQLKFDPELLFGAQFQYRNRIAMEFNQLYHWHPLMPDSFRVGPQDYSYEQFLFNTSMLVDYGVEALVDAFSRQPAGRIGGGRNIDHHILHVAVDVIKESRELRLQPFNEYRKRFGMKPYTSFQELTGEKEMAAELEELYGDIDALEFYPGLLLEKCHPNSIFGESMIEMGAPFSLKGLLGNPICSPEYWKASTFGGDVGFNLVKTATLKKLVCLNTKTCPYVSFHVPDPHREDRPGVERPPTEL
# Sequence (O62698 whole entry): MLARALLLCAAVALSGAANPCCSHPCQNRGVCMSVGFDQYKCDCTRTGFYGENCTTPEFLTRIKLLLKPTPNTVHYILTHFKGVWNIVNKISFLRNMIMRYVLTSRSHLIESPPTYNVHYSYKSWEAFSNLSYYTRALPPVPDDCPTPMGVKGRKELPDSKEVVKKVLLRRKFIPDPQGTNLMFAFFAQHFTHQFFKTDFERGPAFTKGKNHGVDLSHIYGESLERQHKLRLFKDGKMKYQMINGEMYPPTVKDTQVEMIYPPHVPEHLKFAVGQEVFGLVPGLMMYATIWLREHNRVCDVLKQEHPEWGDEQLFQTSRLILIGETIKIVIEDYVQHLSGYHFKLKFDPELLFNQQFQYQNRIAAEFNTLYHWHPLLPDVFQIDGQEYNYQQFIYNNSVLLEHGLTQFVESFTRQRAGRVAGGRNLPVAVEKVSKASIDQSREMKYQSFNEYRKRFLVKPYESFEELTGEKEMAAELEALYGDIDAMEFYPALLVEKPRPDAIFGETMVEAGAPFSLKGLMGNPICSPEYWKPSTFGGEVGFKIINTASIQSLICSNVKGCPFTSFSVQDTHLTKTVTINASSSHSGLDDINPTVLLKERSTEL
READOUT_NAME: IC50 (µM)
Numbers only, in µM.

Solved cases below.
compound=Cc1ccccc1C(=O)c1cccc(CC(=O)[O-])c1N.[Na+] readout_name=IC50 reported_result=1
compound=Cc1cc(CC(=O)[O-])c(N)c(C(=O)c2ccccc2)c1.[Na+] readout_name=IC50 reported_result=11
compound=Nc1c(CC(=O)[O-])cc(Br)cc1C(=O)c1ccc(Cl)cc1.[Na+] readout_name=IC50 reported_result=0.6
compound=Nc1c(CC(=O)[O-])cc(F)cc1C(=O)c1ccccc1.[Na+] readout_name=IC50 reported_result=0.2
compound=CSc1ccc(C(=O)c2cc(C)cc(CC(=O)[O-])c2N)cc1.[Na+] readout_name=IC50 reported_result=0.4
compound=CSc1ccc(C(=O)c2cccc(CC(=O)[O-])c2N)cc1.[Na+] readout_name=IC50 reported_result=0.1
compound=CSc1ccc(C(=O)c2cc(Cl)cc(CC(=O)[O-])c2N)cc1.[Na+] readout_name=IC50 reported_result=0.02
compound=Nc1c(CC(=O)[O-])cc(Cl)cc1C(=O)c1ccccc1.[Na+] readout_name=IC50 reported_result=1

Provide each entry's IC50 from the list below.
1. Cc1ccc(C(=O)c2cc(Cl)cc(CC(=O)[O-])c2N)cc1.[Na+]
2. Nc1c(CC(=O)[O-])cccc1C(=O)c1ccc(Cl)cc1Cl.[Na+]
3. Nc1c(CC(=O)[O-])cc(Cl)cc1C(=O)c1ccc(Cl)cc1.[Na+]

1. 0.02
2. 0.6
3. 0.3

---

# Test system: Rattus norvegicus
# TEST_PROTOCOL: Percent change in average volume of pleural fluid at a dose of 4.0 mg/kg and 5-h response by Evans blue-carrageenan induced pleural effusion assay.
# Type: functional
READOUT_NAME: Change (%)
Answers are plain numbers, in %.

List the reported Change of each compound below.
1. Cc1cc(CC(=O)[O-])c(N)c(C(=O)c2ccccc2)c1.[Na+]
2. COc1ccc(C(=O)c2cccc(CC(=O)[O-])c2N)cc1.[Na+]
3. Nc1c(CC(=O)[O-])cc(Cl)cc1C(=O)c1ccc(Br)cc1Cl.[Na+]
4. Cc1cc(CC(=O)[O-])c(N)c(C(=O)c2ccc(Cl)cc2Cl)c1.[Na+]
5. Cc1cc(CC(=O)[O-])c(N)c(C(=O)c2ccc(F)cc2)c1.[Na+]
6. Nc1c(CC(=O)[O-])cccc1C(=O)c1ccccc1Cl.[Na+]
7. COc1ccc2c(c1)c(CC(=O)O)c(C)n2C(=O)c1ccc(Cl)cc1
8. Cc1ccc(CC(=O)[O-])c(N)c1C(=O)c1ccccc1.[Na+]

1. -11
2. -10
3. -25
4. -24
5. 0
6. -22
7. -33
8. -38

---

So I've got a bunch of compounds here, and I need their Gastric toxicity values.
# Tested on: Rattus norvegicus
# TEST_PROTOCOL: Acute gastric toxicity (single oral dose) in male fasted rats
# Type: organism-based, Stomach
# EXPERIMENTAL_CONTEXT: in vivo

chemical_smiles=CSc1ccc(C(=O)c2cc(Cl)cc(CC(=O)[O-])c2N)cc1.[Na+] subject_of_test="Rattus norvegicus" reported_result=0.9
chemical_smiles=Nc1c(CC(=O)[O-])cc(Cl)cc1C(=O)c1ccc(Cl)cc1.[Na+] subject_of_test="Rattus norvegicus" reported_result=1.2
chemical_smiles=Nc1c(CC(=O)[O-])cc(F)cc1C(=O)c1ccc(F)cc1.[Na+] subject_of_test="Rattus norvegicus" reported_result=0.37
chemical_smiles=Nc1c(CC(=O)[O-])cc(F)cc1C(=O)c1ccc(Cl)cc1.[Na+] subject_of_test="Rattus norvegicus" reported_result=1.1

Provide Gastric toxicity, system Rattus norvegicus, entry `Nc1c(CC(=O)[O-])cccc1C(=O)c1ccc(I)cc1.[Na+]`
5.3

---

# System: Rattus norvegicus
# TEST_PROTOCOL: Percent change in avg. volume of pleural fluid at a dose of 0.16 mg/kg and 5-h response is evaluated by Evans blue-carrageenan induced pleural effusion assay
Hi there, I'd appreciate the recorded Change for every entry that follows.
One number for each entry, in %.

compound=Nc1c(CC(=O)[O-])cc(F)cc1C(=O)c1ccc(Cl)cc1.[Na+] readout_name=Change unit_of_measure=% reported_result=-15

Look at each compound and report its Change.
1. Nc1c(CC(=O)[O-])cccc1C(=O)c1ccc(Br)cc1.Nc1c(CC(=O)[O-])cccc1C(=O)c1ccc(Br)cc1.O.O.O.[Na+].[Na+] [BROMFENAC SODIUM]
2. Nc1c(CC(=O)[O-])cccc1C(=O)c1ccc(Cl)cc1.[Na+]
3. COc1ccc2c(c1)c(CC(=O)O)c(C)n2C(=O)c1ccc(Cl)cc1
4. Nc1c(CC(=O)[O-])cccc1C(=O)c1ccc(I)cc1.[Na+]
5. Cc1cc(CC(=O)[O-])c(N)c(C(=O)c2ccc(Cl)cc2)c1.[Na+]
6. Nc1c(CC(=O)[O-])cccc1C(=O)c1ccc(Cl)cc1Cl.[Na+]

-27
-16
-7
-17
0
-16

Look up Change for the entries below, preserving their order.
1. Nc1c(CC(=O)[O-])cc(Cl)cc1C(=O)c1ccc(Cl)cc1.[Na+]
2. Nc1c(CC(=O)[O-])cccc1C(=O)c1ccccc1.[Na+] [AMFENAC SODIUM]

-18
-13

---

# System: Rattus norvegicus
# TEST_PROTOCOL: Percent change in average volume of pleural fluid at a dose 4 mg/kg of indomethacin and 5-h response is evaluated by Evans blue-carrageenan induced pleural effusion assay
# Format: functional
READOUT_NAME: Change (%)
Numbers only, in %.

chemical_smiles=Cc1cc(CC(=O)[O-])c(N)c(C(=O)c2ccc(Br)cc2)c1.[Na+] readout_name=Change reported_result=-36

Please give Change for each item listed below.
1. Nc1c(CC(=O)[O-])cccc1C(=O)c1ccc(Br)cc1Cl.[Na+]
2. Cc1ccccc1C(=O)c1cccc(CC(=O)[O-])c1N.[Na+]
3. Nc1c(CC(=O)[O-])cccc1C(=O)c1cccc(Cl)c1.[Na+]
4. Nc1c(CC(=O)[O-])cc(F)cc1C(=O)c1ccc(Cl)cc1Cl.[Na+]

1. -32
2. -25
3. -33
4. -45

---

# System: Rattus norvegicus
# TEST_PROTOCOL: Percent change in average volume of pleural fluid at a dose of 4.0 mg/kg and 5-h response by Evans blue-carrageenan induced pleural effusion assay.
# Format: functional
Would you kindly list Change for each of these compounds?
Give bare numbers, in %.

Sample records with Change:
compound=Nc1c(CC(=O)[O-])ccc(Cl)c1C(=O)c1ccccc1.[Na+] readout_name=Change unit_of_measure=% reported_result=-4
compound=Nc1c(CC(=O)[O-])cc(Cl)cc1C(=O)c1ccccc1.[Na+] readout_name=Change unit_of_measure=% reported_result=-17
compound="Nc1c(CC(=O)[O-])cccc1C(=O)c1ccccc1.[Na+] [AMFENAC SODIUM]" readout_name=Change unit_of_measure=% reported_result=-26

Parameters: items (list). Returns: Change for each item.
1. COc1cc(CC(=O)[O-])c(N)c(C(=O)c2ccc(Cl)cc2)c1.[Na+]
2. Nc1c(CC(=O)[O-])cccc1C(=O)c1ccc(Cl)cc1.[Na+]
3. Nc1c(CC(=O)[O-])cccc1C(=O)c1ccc(-c2ccccc2)cc1.[Na+]
4. Nc1c(CC(=O)[O-])cccc1C(=O)c1ccc(I)cc1.[Na+]
5. Nc1c(CC(=O)[O-])cc(F)cc1C(=O)c1ccc(F)cc1.[Na+]
6. Cc1ccc(C(=O)c2cc(Cl)cc(CC(=O)[O-])c2N)cc1.[Na+]
7. Cc1ccc(C(=O)c2cc(F)cc(CC(=O)[O-])c2N)cc1.[Na+]

1: -26; 2: -29; 3: -15; 4: -31; 5: -42; 6: -35; 7: -32

Need Change for each of these compounds.
1. Nc1ccc(CC(=O)O)cc1C(=O)c1ccccc1
2. Nc1c(CC(=O)[O-])cccc1C(=O)c1ccc(Cl)cc1Cl.[Na+]
3. Nc1c(CC(=O)[O-])cc(Cl)cc1C(=O)c1ccc(Br)cc1.[Na+]
4. CSc1ccc(C(=O)c2cc(C)cc(CC(=O)[O-])c2N)cc1.[Na+]

-4
-37
-41
-26

Batch request: Change per item, same order as input.
1. Nc1c(CC(=O)[O-])cccc1C(=O)c1cccc(Cl)c1.[Na+]
2. Nc1c(CC(=O)[O-])cc(Cl)cc1C(=O)c1ccc(I)cc1.[Na+]
3. Nc1c(CC(=O)[O-])cccc1C(=O)c1ccc(F)cc1.[Na+]
4. COc1cc(CC(=O)[O-])c(N)c(C(=O)c2ccc(Br)cc2)c1.[Na+]
5. Cc1ccc(C(=O)c2ccccc2)c(N)c1CC(=O)[O-].[Na+]

1: -15; 2: -35; 3: 0; 4: -28; 5: 2

Provide reported Change for each item, in the same order as listed.
1. Nc1c(CC(=O)[O-])cc(F)cc1C(=O)c1ccc(Br)cc1.[Na+]
2. CSc1ccc(C(=O)c2cccc(CC(=O)[O-])c2N)cc1.[Na+]
3. CSc1ccc(C(=O)c2cc(Cl)cc(CC(=O)[O-])c2N)cc1.[Na+]
4. Cc1cc(CC(=O)[O-])c(N)c(C(=O)c2ccc(Cl)cc2)c1.[Na+]
5. Nc1c(CC(=O)[O-])cccc1C(=O)c1ccc(Br)cc1.Nc1c(CC(=O)[O-])cccc1C(=O)c1ccc(Br)cc1.O.O.O.[Na+].[Na+] [BROMFENAC SODIUM]
6. Cc1ccc(C(=O)c2cc(C)cc(CC(=O)[O-])c2N)cc1.[Na+]
7. CSc1ccc(C(=O)c2cc(F)cc(CC(=O)[O-])c2N)cc1.[Na+]
8. Nc1c(CC(=O)[O-])cccc1C(=O)c1ccc(Br)cc1Cl.[Na+]

1: -28; 2: -21; 3: -43; 4: -32; 5: -43; 6: -12; 7: -28; 8: -26

Items follow; give Change for each.
1. Nc1c(CC(=O)[O-])cccc1C(=O)c1ccc(C(F)(F)F)cc1.[Na+]
2. Nc1c(CC(=O)[O-])cc(Br)cc1C(=O)c1ccc(Br)cc1.[Na+]
3. Cc1cc(CC(=O)[O-])c(N)c(C(=O)c2ccc(Br)cc2)c1.[Na+]
4. Cc1ccc(C(=O)c2cccc(CC(=O)[O-])c2N)c(C)c1.[Na+]
5. Nc1c(CC(=O)[O-])cc(Cl)cc1C(=O)c1ccc(Cl)cc1.[Na+]

1: -38; 2: -30; 3: -31; 4: -3; 5: -41
